molecular target: human Nav1.5 (Homo sapiens, UniProt Q14524); construct: expressed in transfected cells; host or cells: CHO-K1 (T-REx System, ThermoFisher Scientific); assay: Amplification of Nav1.5-derived voltage-dependent sodium current (Nav1.5 current), cell line stably expressing human Nav1.5, automated patch clamp; type: cell-based; settings: compound 3 μmol/L; CHO-K1 stably expressing human Nav1.5
Sequence (Q14524 1-2015 isoform Q14524-2): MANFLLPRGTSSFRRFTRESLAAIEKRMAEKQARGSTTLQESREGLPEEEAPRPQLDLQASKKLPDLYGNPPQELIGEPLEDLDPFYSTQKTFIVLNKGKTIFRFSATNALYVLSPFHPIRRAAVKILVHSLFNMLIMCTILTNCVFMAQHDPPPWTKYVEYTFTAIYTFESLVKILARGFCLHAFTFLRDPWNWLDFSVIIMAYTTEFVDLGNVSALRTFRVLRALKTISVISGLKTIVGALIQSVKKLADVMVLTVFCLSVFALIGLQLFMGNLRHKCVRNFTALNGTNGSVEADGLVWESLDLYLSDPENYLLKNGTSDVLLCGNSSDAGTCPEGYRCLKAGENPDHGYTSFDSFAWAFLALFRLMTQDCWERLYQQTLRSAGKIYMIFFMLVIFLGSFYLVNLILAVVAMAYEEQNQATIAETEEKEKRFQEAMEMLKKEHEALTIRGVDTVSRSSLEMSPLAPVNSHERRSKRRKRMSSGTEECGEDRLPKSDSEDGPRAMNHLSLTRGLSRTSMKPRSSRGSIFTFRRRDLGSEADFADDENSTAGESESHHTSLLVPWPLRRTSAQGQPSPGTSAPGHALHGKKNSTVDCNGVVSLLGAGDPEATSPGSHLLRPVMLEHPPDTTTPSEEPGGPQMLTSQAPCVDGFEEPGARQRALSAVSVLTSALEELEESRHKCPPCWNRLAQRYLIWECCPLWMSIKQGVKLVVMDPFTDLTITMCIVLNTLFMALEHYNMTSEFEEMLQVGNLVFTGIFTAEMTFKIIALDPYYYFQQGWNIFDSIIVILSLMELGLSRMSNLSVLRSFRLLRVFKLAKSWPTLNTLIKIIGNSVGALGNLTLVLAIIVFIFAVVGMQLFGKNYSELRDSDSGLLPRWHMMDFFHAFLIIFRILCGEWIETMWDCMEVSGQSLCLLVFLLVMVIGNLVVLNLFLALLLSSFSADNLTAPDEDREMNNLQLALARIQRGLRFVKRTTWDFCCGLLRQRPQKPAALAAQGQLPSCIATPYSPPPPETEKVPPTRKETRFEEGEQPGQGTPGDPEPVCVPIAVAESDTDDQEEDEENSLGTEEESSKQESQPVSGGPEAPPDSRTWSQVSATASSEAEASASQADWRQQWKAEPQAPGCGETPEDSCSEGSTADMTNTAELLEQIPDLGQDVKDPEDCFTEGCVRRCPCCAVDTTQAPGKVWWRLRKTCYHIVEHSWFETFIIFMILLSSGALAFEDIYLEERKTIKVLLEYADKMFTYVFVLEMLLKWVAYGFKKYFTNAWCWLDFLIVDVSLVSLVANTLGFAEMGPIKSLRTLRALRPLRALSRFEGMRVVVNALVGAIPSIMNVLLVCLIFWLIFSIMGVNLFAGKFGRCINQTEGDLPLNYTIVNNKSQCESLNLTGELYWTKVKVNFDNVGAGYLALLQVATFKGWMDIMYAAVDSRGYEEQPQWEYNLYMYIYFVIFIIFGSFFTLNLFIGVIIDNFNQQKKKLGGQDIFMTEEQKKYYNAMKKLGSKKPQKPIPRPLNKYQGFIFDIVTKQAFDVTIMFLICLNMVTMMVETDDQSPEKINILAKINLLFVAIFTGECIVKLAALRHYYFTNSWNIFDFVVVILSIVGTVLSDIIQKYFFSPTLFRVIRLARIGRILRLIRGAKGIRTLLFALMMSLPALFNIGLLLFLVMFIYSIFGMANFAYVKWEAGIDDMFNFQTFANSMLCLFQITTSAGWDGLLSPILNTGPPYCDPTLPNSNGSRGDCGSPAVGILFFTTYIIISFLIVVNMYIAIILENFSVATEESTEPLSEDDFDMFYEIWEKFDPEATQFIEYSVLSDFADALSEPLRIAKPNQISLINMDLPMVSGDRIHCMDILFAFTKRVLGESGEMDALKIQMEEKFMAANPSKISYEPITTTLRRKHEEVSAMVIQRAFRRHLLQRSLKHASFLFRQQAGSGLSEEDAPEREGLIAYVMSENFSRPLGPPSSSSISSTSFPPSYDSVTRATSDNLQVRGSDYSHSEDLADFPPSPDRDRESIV
Kindly apply the following: Satisfied if Nav1.5 current amplification rate (%) is less than 20%, Not satisfied in every other case.

> print(dat)
                                    compound  assigned.category
 1  CC1CC=C(c2ccc(=O)n(CC(=O)N3CCc4c(C5CN(C(=O)C(C)(C)O)C5)cccc43)n2)CC1 (racemic)      Not satisfied
 2  CC1CC=C(c2ccc(=O)n(CC(=O)N3CC=C(c4ccccc4)CC3)n2)CC1 (racemic)          Satisfied
 3  CC1CC=C(c2ccc(=O)n(CC(=O)N3CCc4c(C5CCN(C)C5)cccc43)n2)CC1 (mixture of isomers)      Not satisfied
 4  CC1CC=C(c2ccc(=O)n(CC(=O)N3CCc4c(C5CNC5)cccc43)n2)CC1 (racemic)          Satisfied
 5  Cc1cc(NC(=O)Cn2nc(C3=CCC(C)CC3)ccc2=O)cc2ncoc12 (racemic)          Satisfied
 6  CC1CC=C(c2ccc(=O)n(CC(=O)N3CCc4c(C5=CCNC5)cccc43)n2)CC1 (racemic)          Satisfied
 7  CC1CC=C(c2ccc(=O)n(CC(=O)Nc3ccn4c(C5CC5)cnc4c3)n2)CC1 (racemic)      Not satisfied
 8  CC1CC=C(c2ccc(=O)n(CC(=O)N3CCN(c4ccccc4)CC3)n2)CC1 (racemic)          Satisfied
 9  CC1CC=C(c2ccc(=O)n(CC(=O)N3CCc4c(-c5ccnnc5)cccc43)n2)CC1 (racemic)      Not satisfied
10  CC1CC=C(c2ccc(=O)n(CC(=O)N3CCc4c(C5CCNC5)cccc43)n2)CC1 (mixture of isomers)      Not satisfied

---

target: human Nav1.5 (Homo sapiens, UniProt Q14524); construct: expressed in transfected cells; host or cells: CHO-K1 (T-REx System, ThermoFisher Scientific); assay: Amplification of Nav1.5-derived voltage-dependent sodium current (Nav1.5 current), cell line stably expressing human Nav1.5, automated patch clamp; assay type: cell-based; conditions: 10 μmol/L compound; change of the area under the curve of Nav1.5 current (Test Result 1)
endpoint: Nav1.5 current amplification rate (%)

> print(dat)
                                   molecule  reported.measurement
1  COc1cc(C2=CCC(C(F)(F)F)CC2)nn(CC(=O)Nc2ccc3ocnc3c2)c1=O (centres unmarked) [Example 447]                     6
2  CC1CCN(c2ccc(=O)n(CC(=O)Nc3cncc(C(F)(F)F)c3)n2)CC1 [Example 61]                     8
3  COc1cc(C2=CCC(C)CC2)nn(CC(=O)Nc2ccn3ccnc3c2)c1=O (centres unmarked) [Example 463]                     9
4  COc1cc(=O)n(CC(=O)Nc2ccc3ocnc3c2)nc1C1=CCC(C(F)(F)F)CC1 (centres unmarked) [Example 450]                     5
5  CC1CC=C(c2ccc(=O)n(CC(=O)N3CCN(c4cccnc4)CC3)n2)CC1 (racemic) [Example 395]                    15
6  CC1(C)CC=C(c2ccc(=O)n(CC(=O)N3CCN(c4cncc(F)c4)CC3)n2)C1 [Example 483]                     7
7  CC1CC=C(c2ccc(=O)n(CC(=O)N3CC=C(c4cncc(F)c4)CC3)n2)CC1 (racemic) [Example 397]                    49
8  CC1CCN(c2ccc(=O)n(CC(=O)Nc3ccc4c(c3)NC(=O)C4)n2)CC1 [Example 86]                     3

---

target: human Nav1.1 (Homo sapiens, UniProt P35498); construct: host or cells: HEK293; assay: Amplification of Nav1.1-derived voltage-dependent sodium current (Nav1.1 current), cell line stably expressing human Nav1.1, automated patch clamp; assay type: cell-based; details: 10 μmol/L compound; change of the area under the curve of Nav1.1 current (Test Result 1); read-out: Nav1.1 current amplification rate (%)
endpoint: activation at 10 µM

> print(dat)
                   compound.structure.string                                    system  reported.measurement
 1  COc1cc(N2CCC(C)(C)CC2)nn(CC(=O)N2CCc3c(N4CCOCC4)cccc32)c1=O  human Nav1.1 (Homo sapiens, UniProt P35498)                  118%
 2  Cc1cc(NC(=O)Cn2nc(N3CCC4(CCCC4)C3)cc(C)c2=O)cc(C)n1  human Nav1.1 (Homo sapiens, UniProt P35498)                   36%
 3  CN(C)c1cc(=O)n(CC(=O)Nc2ccc3ocnc3c2)nc1N1CCC2(CCCC2)C1  human Nav1.1 (Homo sapiens, UniProt P35498)                  318%
 4  O=C(Cn1nc(N2CCC3(CCC3)CC2)ccc1=O)Nc1ccc2scnc2c1  human Nav1.1 (Homo sapiens, UniProt P35498)                  229%
 5  COc1ccc2c(c1)CCN2C(=O)Cn1nc(N2CCC3(CCC3)C2)ccc1=O  human Nav1.1 (Homo sapiens, UniProt P35498)                   37%
 6  O=C(Cn1nc(N2CCC3(CCC3)C2)ccc1=O)Nc1ccn2ccnc2c1  human Nav1.1 (Homo sapiens, UniProt P35498)                  169%
 7  COc1cc(N2CCC3(CCC3)C2)nn(CC(=O)Nc2ccn3ccnc3c2)c1=O  human Nav1.1 (Homo sapiens, UniProt P35498)                  136%
 8  O=C(Cn1nc(N2CCC3(CCC3)CC2)ccc1=O)Nc1cccc(-n2ccnc2)c1  human Nav1.1 (Homo sapiens, UniProt P35498)                  220%
 9  CC1CCN(c2ccc(=O)n(CC(=O)Nc3ccc4ocnc4c3)n2)CC1  human Nav1.1 (Homo sapiens, UniProt P35498)                  155%
10  Cc1cc(=O)n(CC(=O)Nc2ccc3ocnc3c2)nc1N1CCC(C)CC1  human Nav1.1 (Homo sapiens, UniProt P35498)                  139%
11  Cc1cc(NC(=O)Cn2nc(N3CCC4(CCCC4)C3)c(C)cc2=O)cc(C)n1  human Nav1.1 (Homo sapiens, UniProt P35498)                   36%
12  O=C(Cn1nc(C2=CCC(F)(F)CC2)ccc1=O)Nc1ccc(C(F)(F)F)nc1  human Nav1.1 (Homo sapiens, UniProt P35498)                   58%
13  CN1CCN(c2cccc3c2CCN3C(=O)Cn2nc(N3CCC(C)(C)CC3)ccc2=O)CC1  human Nav1.1 (Homo sapiens, UniProt P35498)                   46%
14  O=C(Cn1nc(C2=CCC(F)(F)CC2)ccc1=O)Nc1cncc(C(F)(F)F)c1  human Nav1.1 (Homo sapiens, UniProt P35498)                   46%
15  Cc1cc(N2CCC3(CCCC3)C2)nn(CC(=O)Nc2ccc3ocnc3c2)c1=O  human Nav1.1 (Homo sapiens, UniProt P35498)                  219%
16  Cc1c(N2CCC3(CCC3)C2)nn(CC(=O)Nc2ccn3ccnc3c2)c(=O)c1C  human Nav1.1 (Homo sapiens, UniProt P35498)                  179%
17  CC1(C)CC=C(c2ccc(=O)n(CC(=O)N3CCN(c4cccnc4)CC3)n2)C1  human Nav1.1 (Homo sapiens, UniProt P35498)                   24%

---

Biological target: human Nav1.5 (Homo sapiens, UniProt Q14524)
Construct: expressed in transfected cells; host or cells: CHO-K1 (T-REx System, ThermoFisher Scientific)
Assay: Amplification of Nav1.5-derived voltage-dependent sodium current (Nav1.5 current), cell line stably expressing human Nav1.5, automated patch clamp
Type: cell-based
Conditions: 10 μmol/L compound; change of the area under the curve of Nav1.5 current (Test Result 1); read-out: Nav1.5 current amplification rate (%)
Description: Test 2: Evaluation of the Amplification in Nav1.5-Derived Voltage-Dependent Sodium Current (Nav1.5 Current) by Using a Cell Line Stably Expressing Human Nav1.5 A CHO-K1 cell line (Chinese hamster ovary) stably expressing human Nav1.5 (Gene Bank Accession No: P000326.2) was obtained by using purchased T-Rex System (ThermoFisher Scientific, USA), and used for the present test. […]
Returns one of Condition met or Condition not met; Condition met when activation at 10 µM is >= 10%.

> print(dat)
                  compound.structure.string  assigned.category
1  O=C(Cn1nc(C2=CCC(F)(F)CC2)ccc1=O)Nc1ccc(C(F)(F)F)nc1      Condition met
2  Cc1cc(N2CCC3(CCC3)C2)nn(CC(=O)Nc2ccc3ocnc3c2)c1=O  Condition not met
3  CC1CCN(c2ccc(=O)n(CC(=O)N3CCc4cc(N5CCN(C)CC5)ccc43)n2)CC1  Condition not met
4  Cc1cc(=O)n(CC(=O)Nc2ccc3ocnc3c2)nc1N1CCC2(CCCC2)C1      Condition met
5  O=C(Cn1nc(N2CCCC3(CCC3)C2)ccc1=O)Nc1ccc2scnc2c1      Condition met
6  CC1(C)CC=C(c2ccc(=O)n(CC(=O)Nc3ccc4ocnc4c3)n2)CC1      Condition met
7  CC1CCN(c2ccc(=O)n(CC(=O)Nc3ccc4c(c3)OCC4)n2)CC1  Condition not met
